# Subject Of Test: P2X purinoceptor 3 (Homo sapiens, UniProt P56373)
# Sequence (P56373 whole entry): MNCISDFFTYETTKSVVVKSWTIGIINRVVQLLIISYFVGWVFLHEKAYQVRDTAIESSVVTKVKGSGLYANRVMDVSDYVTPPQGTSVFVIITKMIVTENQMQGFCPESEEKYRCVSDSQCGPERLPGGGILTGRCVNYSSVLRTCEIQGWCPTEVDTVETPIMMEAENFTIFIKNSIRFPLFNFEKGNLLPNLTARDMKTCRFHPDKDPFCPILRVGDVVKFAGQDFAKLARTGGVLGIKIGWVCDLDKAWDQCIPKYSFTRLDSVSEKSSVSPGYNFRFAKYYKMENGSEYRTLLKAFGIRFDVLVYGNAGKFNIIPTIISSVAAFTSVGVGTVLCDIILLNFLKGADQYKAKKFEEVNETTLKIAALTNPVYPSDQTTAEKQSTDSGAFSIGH
# Test Method Notes: Inhibitory concentration against human P2X purinoceptor 3 (hP2X3) expressed in CHO-K1 cells
pIC50: −log10 of the molar value.
Quantity Name: pIC50

Q. Given the entry O=C(N[C@H](Cc1cscn1)C(=O)N[C@@H](CC1CCCCC1)[C@@H](O)[C@@H](O)C1CC1)c1nc2ccccc2[nH]1 , what pIC50 was observed with P2X purinoceptor 3 (Homo sapiens, UniProt P56373)?
A. < 4.00

----------
# Subject Of Test: P2X purinoceptor 2 (Homo sapiens)
# Sequence (Q9UBL9 whole entry): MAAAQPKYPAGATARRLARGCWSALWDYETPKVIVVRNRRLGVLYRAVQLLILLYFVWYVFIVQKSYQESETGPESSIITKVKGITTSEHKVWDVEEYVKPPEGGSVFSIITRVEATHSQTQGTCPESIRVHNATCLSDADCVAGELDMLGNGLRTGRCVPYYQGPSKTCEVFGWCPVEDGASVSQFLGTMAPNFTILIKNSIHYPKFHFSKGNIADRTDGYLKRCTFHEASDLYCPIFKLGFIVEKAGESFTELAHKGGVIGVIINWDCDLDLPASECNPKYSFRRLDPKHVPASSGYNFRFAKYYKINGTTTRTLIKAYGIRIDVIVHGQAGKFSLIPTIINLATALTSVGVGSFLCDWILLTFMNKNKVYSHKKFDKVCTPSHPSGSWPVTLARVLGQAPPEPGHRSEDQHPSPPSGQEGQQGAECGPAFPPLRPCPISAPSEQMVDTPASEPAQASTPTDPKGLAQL
# Test Method Notes: Inhibitory concentration against human P2X purinoceptor 2 (hP2X2) expressed in 1321N1 astrocytoma cells
pIC50: −log10 of the molar value.
Quantity Name: pIC50

Q. Name the reported pIC50 value associated with the compound O=C(N[C@H](Cc1cscn1)C(=O)N[C@@H](CC1CCCCC1)[C@@H](O)[C@@H](O)C1CC1)c1nc2ccccc2[nH]1
A. < 4.00
